# TARGET_ENTITY: Thymidylate synthase (Homo sapiens)
# Sequence (P04818 whole entry): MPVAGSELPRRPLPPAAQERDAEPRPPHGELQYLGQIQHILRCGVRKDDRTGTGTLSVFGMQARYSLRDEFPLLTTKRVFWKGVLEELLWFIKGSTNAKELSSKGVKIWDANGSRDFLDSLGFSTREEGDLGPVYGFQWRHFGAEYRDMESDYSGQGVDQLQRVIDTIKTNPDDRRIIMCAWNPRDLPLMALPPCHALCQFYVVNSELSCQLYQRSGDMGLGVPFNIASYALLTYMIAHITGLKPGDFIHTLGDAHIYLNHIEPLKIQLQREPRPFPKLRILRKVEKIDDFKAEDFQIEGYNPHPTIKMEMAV
REPORTED_PROPERTY: pKi
pKi (log units): -log10 of the concentration in mol/L.

*Q* GET /values?readout=pKi&item= O=c1ccn([C@@H]2O[C@H](COP(=O)(O)O)[C@@H](O)C2(F)F)c(=O)[nH]1
*A* 3.36
